B1: EPB41L3 (parent)
chain: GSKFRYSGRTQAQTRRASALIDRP

- Variants of: B1
- Experiment: protein stability index of a GFP-peptide fusion (GPS, HEK-293T) (PSI 1-6); higher = more stable;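 also: lentivirally expressed fusions sorted by FACS into six bins by GFP to DsRed ratio, PSI derived from sequencing read proportions per bin multiplied by bin number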
- Run parameters: c terminus: a fixed tail appended
Would you mind labelling by protein stability index? At or over 3 is label 1, under is label 0.

Example results:
A19D
label 1
S2N
label 0
A17Q
label 1
D22W
label 0

*Q* Hello, I need to know if G8A has measured protein stability index not below 3. Thanks!
*A* label 1

*Q* Hello, I need to know if R16G has measured protein stability index not below 3. Thanks!
*A* label 1

Values from the supplement of paper PMC10567573
